Assayed target: truncated XIAP containing only BIR1, BIR2, and BIR3 domains (Homo sapiens, UniProt P98170)
Construct: truncated XIAP containing only BIR1, BIR2, and BIR3 domains
Sequence (P98170 1-356 limits assumed): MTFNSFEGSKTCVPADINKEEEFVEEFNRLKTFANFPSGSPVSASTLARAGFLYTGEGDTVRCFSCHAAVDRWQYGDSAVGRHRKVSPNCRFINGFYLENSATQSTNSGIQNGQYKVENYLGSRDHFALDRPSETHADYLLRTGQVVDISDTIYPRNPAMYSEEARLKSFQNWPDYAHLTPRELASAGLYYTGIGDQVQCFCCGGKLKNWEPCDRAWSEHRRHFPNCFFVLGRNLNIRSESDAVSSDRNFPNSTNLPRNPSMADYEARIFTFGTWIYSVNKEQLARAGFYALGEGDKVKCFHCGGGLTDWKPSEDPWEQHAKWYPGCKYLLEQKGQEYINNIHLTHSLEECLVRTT
Assay summary: Fluorescent polarization assay (Bir binding)
Test parameters: competition with 2 nM fluorescein labeled AVPI peptide, room temperature, 1 hour
Bir binding listing for selected molecules.
Report only the number, with the unit µM understood.

Molecule: CN[C@@H](C)C(=O)N[C@H](C(=O)N1CCC[C@H]1C(=O)N[C@@H]1CCCc2ccccc21)[C@@H](C)OCc1nnn2c1-c1c(CO[C@H](C)[C@H](NC(=O)[C@H](C)NC)C(=O)N3CCC[C@H]3C(=O)N[C@@H]3CCCc4ccccc43)nnn1CC2.Cl.Cl
Unit spec: µM
Bir binding: 0.13
//
Molecule: CN[C@@H](C)C(=O)N[C@H](C(=O)N1CCCC1C(=O)N[C@@H]1CCCc2ccccc21)[C@@H](C)OCCCCCCO[C@H](C)[C@H](NC(=O)[C@H](C)NC)C(=O)N1CCC[C@H]1C(=O)N[C@@H]1CCCc2ccccc21.Cl.Cl (some centres unmarked)
Unit spec: µM
Bir binding: 0.158
//
Molecule: CN[C@@H](C)C(=O)N[C@@H](CCCc1ccc([C@H](NC(=O)[C@H](C)NC)C(=O)N2CCC[C@H]2C(=O)N[C@@H]2CCCc3ccccc32)cc1)C(=O)N1CCC[C@H]1C(=O)N[C@@H]1CCCc2ccccc21.Cl.Cl
Unit spec: µM
Bir binding: 0.2
//
Molecule: CN[C@@H](C)C(=O)N[C@@H](CCCCNC(=O)c1ccc(C(=O)NCCCC[C@H](NC(=O)[C@H](C)NC)C(=O)N2CCC[C@H]2C(=O)N[C@@H]2CCCc3ccccc32)cc1)C(=O)N1CCC[C@H]1C(=O)N[C@@H]1CCCc2ccccc21.Cl.Cl
Unit spec: µM
Bir binding: 0.19
//
Molecule: CN[C@@H](C)C(=O)N[C@@H](Cc1ccc(OC/C=C\COc2ccc(C[C@H](NC(=O)[C@H](C)NC)C(=O)N3CCCC3C(=O)N[C@@H]3CCCc4ccccc43)cc2)cc1)C(=O)N1CCCC1C(=O)N[C@@H]1CCCc2ccccc21.Cl.Cl (some centres unmarked)
Unit spec: µM
Bir binding: 0.18

// CN[C@@H](C)C(=O)N[C@@H](Cc1cn(CCn2cc(C[C@H](NC(=O)[C@H](C)NC)C(=O)N3CCC[C@H]3C(=O)N[C@@H]3CCCc4ccccc43)nn2)nn1)C(=O)N1CCC[C@H]1C(=O)N[C@@H]1CCCc2ccccc21.Cl.Cl : Bir binding value = 0.18

Form field Bir binding, entry CN[C@@H](C)C(=O)N[C@@H](Cc1cn(CCCn2cc(C[C@H](NC(=O)[C@H](C)NC)C(=O)N3CCC[C@H]3C(=O)N[C@@H]3CCCc4ccccc43)nn2)nn1)C(=O)N1CCC[C@H]1C(=O)N[C@@H]1CCCc2ccccc21.Cl.Cl : 0.136

Per the record, CN[C@@H](C)C(=O)N[C@@H](Cc1ccc(OCCCCOc2ccc(C[C@H](NC(=O)[C@H](C)NC)C(=O)N3CCCC3C(=O)N[C@@H]3CCCc4ccccc43)cc2)cc1)C(=O)N1CCCC1C(=O)N[C@@H]1CCCc2ccccc21.Cl.Cl (some centres unmarked) has Bir binding of 0.15

====

System: HCC461 cells
Assay summary: Cell viability assay in HCC461 cells (WST-1)
Type: cell-based
Test parameters: HCC461; 48 hrs incubation, WST-1 viability; read-out: HCC461 cell
Here the recorded IC50 is given for each entry.
# output: bare number, implied unit µM

The measured IC50 associated with CN[C@@H](C)C(=O)N[C@H](C(=O)N1CCC[C@H]1C(=O)N[C@@H]1CCCc2ccccc21)c1ccc(C#CCO[C@H](C)[C@H](NC(=O)[C@H](C)NC)C(=O)N2CCC[C@H]2C(=O)N[C@@H]2CCCc3ccccc32)cc1 [Compound 32] reads 0.005

Measured IC50, CN[C@@H](C)C(=O)N[C@@H](CCCc1ccc(C[C@H](NC(=O)[C@H](C)NC)C(=O)N2CCC[C@H]2C(=O)N[C@@H]2CCCc3ccccc32)cc1)C(=O)N1CCC[C@H]1C(=O)N[C@@H]1CCCc2ccccc21.Cl.Cl [Compound 41] : 0.02

IC50 recorded for this compound, CN[C@@H](C)C(=O)NC(C(=O)N[C@@H](Cc1cn(C/C=C\Cn2cc(C[C@H](NC(=O)[C@@H](NC(=O)[C@H](C)NC)C(C)(C)C)C(=O)N[C@@H]3CCCc4ccccc43)nn2)nn1)C(=O)N[C@@H]1CCCc2ccccc21)C(C)(C)C.Cl.Cl (stereo partly shown) [Compound 24] , is 1.4

For this compound ( CC[C@H](NC)C(=O)N[C@@H](CCCCCC[C@H](NC(=O)[C@H](CC)NC)C(=O)N1CCC[C@H]1C(=O)N[C@@H]1CCCc2ccccc21)C(=O)N1CCC[C@H]1C(=O)N[C@@H]1CCCc2ccccc21 [Compound 10] ), measured IC50 is 0.02
